The entries below are paired with their reported koff.
Target: T1, mouse common cytokine receptor γ-chain (IL-2Rγ) (mouse, UniProt P34902 23-263, limits assumed)
T1 construct: Recombinant mouse IL-2Rγ protein; also called mo IL-2R; mouse IL-2R gamma
T1 sequence (looked up): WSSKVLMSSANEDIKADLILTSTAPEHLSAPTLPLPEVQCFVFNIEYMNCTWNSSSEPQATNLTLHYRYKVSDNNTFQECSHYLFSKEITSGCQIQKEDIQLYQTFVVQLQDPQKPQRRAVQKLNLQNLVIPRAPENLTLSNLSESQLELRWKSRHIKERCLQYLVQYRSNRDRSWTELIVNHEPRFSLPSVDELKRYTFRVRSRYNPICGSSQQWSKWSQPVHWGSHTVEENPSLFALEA
Assay: P.E. off-rate SPR
Procedure: SPR was performed to determine dissociation rates using Biacore 3000 instrument (GE Healthcare). Briefly, human and mouse IL-2R proteins were immobilized on carboxylmethyl dextran sensor chip (CM5) at approximately 2500 RUs using amine coupling in acetate buffer (GE Healthcare). The VHH-containing P.E. were loaded with a flow rate of 30 uL/min and the off-rates were measured over a 120s period.
Enter your answer as a number in s⁻¹; do not include the unit.

Solved cases (7 shown):
>>> reading("FJ1427_P035MP07F05 (VHH, tested as periplasmic extract; also called Clone nr) VHH: EVQLVESGGGLVQAGGSLRLSCAASGRTLSRYAMGWFRQAPGREREFVTANSWGGDTYYADSVQGRFTFSRDNAKNTVYLQMNSLQPEDTAVYYCAAAPTSFATTAYSSSNSYAYWGQGTQVTVSS")
0.116
>>> reading("FJ1427_P035MP07G02 (VHH, tested as periplasmic extract; also called Clone nr) VHH: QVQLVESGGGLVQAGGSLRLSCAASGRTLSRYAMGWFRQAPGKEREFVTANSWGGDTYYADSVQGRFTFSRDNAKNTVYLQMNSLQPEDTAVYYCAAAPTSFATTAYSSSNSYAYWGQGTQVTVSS")
0.1
>>> reading("FJ1427_P035MP07H08 (VHH, tested as periplasmic extract; also called Clone nr; 640) VHH: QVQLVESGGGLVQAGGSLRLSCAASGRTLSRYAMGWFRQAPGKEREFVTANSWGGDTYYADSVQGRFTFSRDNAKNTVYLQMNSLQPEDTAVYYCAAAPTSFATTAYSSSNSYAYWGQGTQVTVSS")
0.1
>>> reading("FJ1427_P035MP07G08 (VHH, tested as periplasmic extract; also called Clone nr) VHH: QVQLVESGGGLVQAGGSLRLSCAASGRTLSRYAMGWFRQAPGREREFVTANSWGGDTYYADSVQGRFTFSRDNAKNTVYLQMSSLQPEDTAVYYCAAAPTSFATTAYSSSNSYAYWGQGTQVTVSS")
0.105
>>> reading("FJ1427_P035MP07C10 (VHH, tested as periplasmic extract; also called Clone nr; 651) VHH: QVQLVESGGGLVQAGGSLRLSCAASGRSLSRDAMGWFRQAPGKEREFVAVMSWGGDTFYTDSVEGRFTFSRDNAKNAVYLEMNDLQPEDTAVYYCAAAPTSFATTAYSSSNSYSYWGRGTQVTVSS")
0.0132
>>> reading("FJ1427_P035MP07E05 (VHH, tested as periplasmic extract; also called Clone nr) VHH: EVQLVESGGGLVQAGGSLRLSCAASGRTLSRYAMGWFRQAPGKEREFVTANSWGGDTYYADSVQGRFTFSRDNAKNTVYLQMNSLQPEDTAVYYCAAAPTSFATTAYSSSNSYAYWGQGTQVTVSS")
0.12
>>> reading("FJ1427_P035MP07A07 (VHH, tested as periplasmic extract; also called Clone nr) VHH: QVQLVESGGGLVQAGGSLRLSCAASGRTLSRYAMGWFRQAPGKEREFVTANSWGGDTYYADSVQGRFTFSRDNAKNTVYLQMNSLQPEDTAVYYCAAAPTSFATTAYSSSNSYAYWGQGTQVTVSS")
0.0971

Let us examine a further case.
Prompt: Data request, read-out koff, for FJ1427_P035MP07E10 (VHH, tested as periplasmic extract; also called Clone nr; 653) VHH: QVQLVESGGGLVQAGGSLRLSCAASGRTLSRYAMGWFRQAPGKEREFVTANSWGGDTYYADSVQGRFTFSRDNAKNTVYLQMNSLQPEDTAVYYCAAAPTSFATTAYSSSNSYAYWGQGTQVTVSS
Completion: 0.107
